B1: library; numbered along this chain (parent)
chain: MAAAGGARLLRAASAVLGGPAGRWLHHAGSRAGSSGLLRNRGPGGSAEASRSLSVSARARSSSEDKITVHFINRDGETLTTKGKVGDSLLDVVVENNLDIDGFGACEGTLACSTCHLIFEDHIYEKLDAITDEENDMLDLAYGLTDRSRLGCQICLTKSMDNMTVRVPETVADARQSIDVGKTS

Variants of: B1
test: scaled log2 fold change in cell abundance, elesclomol vs control (0 = silent mean, 1 = nonsense mean) (scaled log2 ratio); higher = higher viability under elesclomol (loss of FDX1 cuproptosis function);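 also: variant abundance is its share of total variant reads in each endpoint sample, from next-generation sequencing of the integrated ORF PCR-amplified out of genomic DNA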
assayContext: with ABC1 FDX1 KO; elesclomol 5 nM; glucose 10 mM; 14 days
Catalogue of scaled log2 fold change readings, one per entry.
# answer = number (no unit)

In the examples that follow, each entry is paired with its recorded scaled log2 fold change.
{"variantDescriptor": "V167F", "scaled log2 fold change": 0.518}
{"variantDescriptor": "N40D", "scaled log2 fold change": -0.359}

Please give the measured scaled log2 fold change for this variant: A7C
0.0253

Please give the measured scaled log2 fold change for this variant: L37C
-0.0306

Please give the measured scaled log2 fold change for this variant: R51E
-0.316

Please give the measured scaled log2 fold change for this variant: E125K
0.48

Please give the measured scaled log2 fold change for this variant: C152A
1.22

Please give the measured scaled log2 fold change for this variant: I67V
-0.37

Please give the measured scaled log2 fold change for this variant: G22P
0.294

Please give the measured scaled log2 fold change for this variant: C152Q
1.01

Please give the measured scaled log2 fold change for this variant: S46G
0.864

Please give the measured scaled log2 fold change for this variant: L10H
0.222
